# assayed.target: NR2F6 (Homo sapiens, UniProt P10588)
# Construct: expressed in transfected cells; also transient transfection
# Sequence (P10588 1-404): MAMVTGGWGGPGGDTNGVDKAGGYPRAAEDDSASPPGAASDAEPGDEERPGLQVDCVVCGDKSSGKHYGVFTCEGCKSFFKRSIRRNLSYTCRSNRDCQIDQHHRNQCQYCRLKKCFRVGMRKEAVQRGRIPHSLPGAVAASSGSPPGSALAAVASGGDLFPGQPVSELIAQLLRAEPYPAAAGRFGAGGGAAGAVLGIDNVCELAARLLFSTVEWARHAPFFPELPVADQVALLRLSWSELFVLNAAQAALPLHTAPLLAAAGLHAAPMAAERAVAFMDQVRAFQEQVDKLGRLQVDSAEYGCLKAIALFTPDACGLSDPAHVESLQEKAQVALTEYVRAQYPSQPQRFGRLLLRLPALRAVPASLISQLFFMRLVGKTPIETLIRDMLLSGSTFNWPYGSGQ
# protocol.text: NR2F6 agonist screening, Firefly signal cmpd/DMSO
# Assay type: cell-based
# cond: Table 12; ratio of Firefly in NR2F6 stable clone F4 to pGL4
measurement.type: Firefly, NR2F6 stable (clone F4)/pGL4
Just the number.

COC(=O)c1ccc2oc(=O)c(S(=O)(=O)c3ccc(C)cc3)cc2c1 [Compound C13] :: 4.2
O=c1oc2ccccc2cc1S(=O)(=O)c1ccccc1F [Compound C108] :: 5.5
Cc1cc(S(=O)(=O)c2cc3ccccc3oc2=O)ccc1F [Compound C110] :: 3.9
CCOc1cccc2cc(S(=O)(=O)c3cccc(Cl)c3)c(=O)oc12 [Compound C256] :: 4.5
Cc1ccc(S(=O)(=O)c2cc3cc(C(=O)NCCc4ccccc4)ccc3oc2=O)cc1 [Compound C112] :: 4.1
COc1ccc(S(=O)(=O)c2cc3cc(F)cc(F)c3oc2=O)cc1 [Compound C289] :: 15.3

Query :: Value wanted: Firefly, NR2F6 stable (clone F4)/pGL4 (NR2F6 (Homo sapiens, UniProt P10588)) of entry COc1ccc(NC(=O)c2ccc3oc(=O)c(S(=O)(=O)c4ccccc4)cc3c2)cc1 [Compound C177]
Result :: 8.5

Query :: Firefly, NR2F6 stable (clone F4)/pGL4 of N#Cc1cccc(S(=O)(=O)c2cc3cc(Cl)ccc3oc2=O)c1 [Compound C195] on NR2F6 (Homo sapiens, UniProt P10588)?
Result :: 7.7

Query :: Find Firefly, NR2F6 stable (clone F4)/pGL4 (NR2F6 (Homo sapiens, UniProt P10588)) for the entry COc1ccc(S(=O)(=O)c2cc3cc(Cl)ccc3oc2=O)cc1OC [Compound C155]
Result :: 10.9
